Just for reference, patent US9765105B2 is where these values come from.

Measured MIC values, Haemophilus parasuis, listed per entry for reference.
Tested on: Haemophilus parasuis
PROTOCOL SUMMARY: in vitro susceptibility, MIC by mini broth dilution
Assay type: cell-based
Method: in vitro tests of susceptibility of the compounds according to the present disclosure against bacterial strains commonly used in laboratories. […] The MICs (minimum inhibitory concentration) of the medicaments prepared according to the examples on the following bacterial strains were measured through mini broth dilution technique. […] The dilution ratio was recorded, and the bacterial liquid for the tests was diluted according to the recorded dilution ratio. […]
Expressed in ug/mi, but write only the number.

Quick check: MIC values, Haemophilus parasuis on Haemophilus parasuis, item CCCN1C[C@H](C)[C@@H](O)[C@](C)(O)[C@@H](CC)OC(=O)[C@H](C)[C@@H](O[C@H]2C[C@@](C)(OC)[C@](O)(CNCCc3ccc(S(N)(=O)=O)cc3)[C@H](C)O2)[C@H](C)[C@@H](O[C@@H]2O[C@H](C)C[C@H](N(C)C)[C@H]2O)[C@](C)(O)C[C@H]1C [syzx-161] ?
0.25

Quick check: MIC values, Haemophilus parasuis on Haemophilus parasuis, item CCCN1C[C@H](C)[C@@H](O)[C@](C)(O)[C@@H](CC)OC(=O)[C@H](C)[C@@H](O[C@H]2C[C@@](C)(OC)[C@](O)(CNCCc3c[nH]c4ccccc34)[C@H](C)O2)[C@H](C)[C@@H](O[C@@H]2O[C@H](C)C[C@H](N(C)C)[C@H]2O)[C@](C)(O)C[C@H]1C [syzx-174] ?
2

Quick check: MIC values, Haemophilus parasuis on Haemophilus parasuis, item CC[C@H]1OC(=O)[C@H](C)[C@@H](OC2CC(C)(OC)C(O)(CNC(C)CC(=O)O)C(C)O2)[C@H](C)[C@@H](O[C@@H]2O[C@H](C)C[C@H](N(C)C)[C@H]2O)[C@](C)(O)C[C@@H](C)NC[C@H](C)[C@@H](O)[C@]1(C)O (some centres unmarked) [syzx-50] ?
0.5

Quick check: MIC values, Haemophilus parasuis on Haemophilus parasuis, item CCCN1C[C@H](C)[C@@H](O)[C@](C)(O)[C@@H](CC)OC(=O)[C@H](C)[C@@H](O[C@H]2C[C@@](C)(OC)[C@](O)(CNCc3ccc([N+](=O)[O-])cc3)[C@H](C)O2)[C@H](C)[C@@H](O[C@@H]2O[C@H](C)C[C@H](N(C)C)[C@H]2O)[C@](C)(O)C[C@H]1C [syzx-119] ?
0.25

Quick check: MIC values, Haemophilus parasuis on Haemophilus parasuis, item CCCN1CC(C)C(O)C(C)(O)C(CC)OC(=O)C(C)C(OC2CC(C)(OC)C(O)(Cn3ccnn3)C(C)O2)C(C)C(OC2OC(C)CC(N(C)C)C2O)C(C)(O)CC1C (centres unmarked) [syzx-109] ?
0.25

Quick check: MIC values, Haemophilus parasuis on Haemophilus parasuis, item CCCN1C[C@H](C)[C@@H](O)[C@](C)(O)[C@@H](CC)OC(=O)[C@H](C)[C@@H](O[C@H]2C[C@@](C)(OC)[C@](O)(CNOCc3ccccc3)[C@H](C)O2)[C@H](C)[C@@H](O[C@@H]2O[C@H](C)C[C@H](N(C)C)[C@H]2O)[C@](C)(O)C[C@H]1C [syzx-182] ?
0.5

Quick check: MIC values, Haemophilus parasuis on Haemophilus parasuis, item CC[C@H]1OC(=O)[C@H](C)[C@@H](O[C@H]2C[C@@](C)(OC)[C@](O)(CNCCCC(OC)OC)[C@H](C)O2)[C@H](C)[C@@H](O[C@@H]2O[C@H](C)C[C@H](N(C)C)[C@H]2O)[C@](C)(O)C[C@@H](C)NC[C@H](C)[C@@H](O)[C@]1(C)O [syzx-56] ?
0.5

Quick check: MIC values, Haemophilus parasuis on Haemophilus parasuis, item CCCC(C)NC[C@]1(O)[C@H](C)O[C@@H](O[C@H]2[C@H](C)[C@@H](O[C@@H]3O[C@H](C)C[C@H](N(C)C)[C@H]3O)[C@](C)(O)C[C@@H](C)N(CCC)C[C@H](C)[C@@H](O)[C@](C)(O)[C@@H](CC)OC(=O)[C@@H]2C)C[C@@]1(C)OC (some centres unmarked) [syzx-163] ?
0.25

###

Test system: Actinobacillus pleuropneumoniae CVCC262
PROTOCOL SUMMARY: in vitro susceptibility, MIC by mini broth dilution
Format: cell-based
DETAILS: strain CVCC262
Measured MIC values, Actinobacillus pleuropneumoniae CVCC262, listed per entry for reference.
Expressed in ug/mi, but write only the number.

Could you tell me which MIC values, Actinobacillus pleuropneumoniae CVCC262 is on file for `CCCN1C[C@H](C)[C@@H](O)[C@](C)(O)[C@@H](CC)OC(=O)[C@H](C)[C@@H](O[C@H]2C[C@@](C)(OC)[C@](O)(CNc3ccc(C)o3)[C@H](C)O2)[C@H](C)[C@@H](O[C@@H]2O[C@H](C)C[C@H](N(C)C)[C@H]2O)[C@](C)(O)C[C@H]1C` ?
2

Continuing:
Could you tell me which MIC values, Actinobacillus pleuropneumoniae CVCC262 is on file for `CC[C@H]1OC(=O)[C@H](C)[C@@H](O[C@H]2C[C@@](C)(OC)[C@](O)(CNCc3ccc(F)cc3)[C@H](C)O2)[C@H](C)[C@@H](O[C@@H]2O[C@H](C)C[C@H](N(C)C)[C@H]2O)[C@](C)(O)C[C@@H](C)NC[C@H](C)[C@@H](O)[C@]1(C)O` ?
0.5

Could you tell me which MIC values, Actinobacillus pleuropneumoniae CVCC262 is on file for `CC[C@H]1OC(=O)[C@H](C)[C@@H](O[C@H]2C[C@@](C)(OC)[C@](O)(CNCCCN3CCOCC3)[C@H](C)O2)[C@H](C)[C@@H](O[C@@H]2O[C@H](C)C[C@H](N(C)C)[C@H]2O)[C@](C)(O)C[C@@H](C)NC[C@H](C)[C@@H](O)[C@]1(C)O` ?
1

Could you tell me which MIC values, Actinobacillus pleuropneumoniae CVCC262 is on file for `CC[C@H]1OC(=O)[C@H](C)[C@@H](O[C@H]2C[C@@](C)(OC)[C@](O)(CNCCc3c[nH]c4ccccc34)[C@H](C)O2)[C@H](C)[C@@H](O[C@@H]2O[C@H](C)C[C@H](N(C)C)[C@H]2O)[C@](C)(O)C[C@@H](C)NC[C@H](C)[C@@H](O)[C@]1(C)O` ?
1

Could you tell me which MIC values, Actinobacillus pleuropneumoniae CVCC262 is on file for `CC[C@H]1OC(=O)[C@H](C)[C@@H](O[C@H]2C[C@@](C)(OC)[C@](O)(CNCc3ccco3)[C@H](C)O2)[C@H](C)[C@@H](O[C@@H]2O[C@H](C)C[C@H](N(C)C)[C@H]2O)[C@](C)(O)C[C@@H](C)NC[C@H](C)[C@@H](O)[C@]1(C)O` ?
16

Could you tell me which MIC values, Actinobacillus pleuropneumoniae CVCC262 is on file for CC[C@H]1OC(=O)[C@H](C)[C@@H](O[C@H]2C[C@@](C)(OC)[C@](O)(CNC(C)CCc3ccccc3)[C@H](C)O2)[C@H](C)[C@@H](O[C@@H]2O[C@H](C)C[C@H](N(C)C)[C@H]2O)[C@](C)(O)C[C@@H](C)NC[C@H](C)[C@@H](O)[C@]1(C)O (some centres unmarked) ?
8

###

Measured MIC values, Haemophilus parasuis, listed per entry for reference.
Test system: Haemophilus parasuis
PROTOCOL SUMMARY: in vitro susceptibility, MIC by mini broth dilution
Type: cell-based
Expressed in ug/mi, but write only the number.

Use the examples below as a reference point.
Could you tell me which MIC values, Haemophilus parasuis is on file for CCCN1CC(C)C(O)C(C)(O)C(CC)OC(=O)C(C)C(OC2CC(C)(OC)C(O)(CNNc3ccccc3)C(C)O2)C(C)C(OC2OC(C)CC(N(C)C)C2O)C(C)(O)CC1C (stereo not shown) ?
1

Could you tell me which MIC values, Haemophilus parasuis is on file for CCC1OC(=O)C(C)C(OC2CC(C)(OC)C(O)(CNCNCc3ccc(C=O)cc3)C(C)O2)C(C)C(OC2OC(C)CC(N(C)C)C2O)C(C)(O)CC(C)NCC(C)C(O)C1(C)O (stereo not shown) ?
0.25

Could you tell me which MIC values, Haemophilus parasuis is on file for CCCN1C[C@H](C)[C@@H](O)[C@](C)(O)[C@@H](CC)OC(=O)[C@H](C)[C@@H](O[C@H]2C[C@@](C)(OC)[C@](O)(CN(C)CCO)[C@H](C)O2)[C@H](C)[C@@H](O[C@@H]2O[C@H](C)C[C@H](N(C)C)[C@H]2O)[C@](C)(O)C[C@H]1C [syzx-126] ?
4

Continuing:
Could you tell me which MIC values, Haemophilus parasuis is on file for `CCCN1C[C@H](C)[C@@H](O)[C@](C)(O)[C@@H](CC)OC(=O)[C@H](C)[C@@H](O[C@H]2C[C@@](C)(OC)[C@](O)(CNCCCO)[C@H](C)O2)[C@H](C)[C@@H](O[C@@H]2O[C@H](C)C[C@H](N(C)C)[C@H]2O)[C@](C)(O)C[C@H]1C` ?
0.25
